// provenance: PubChem BioAssay (NCI)

# System: EKVX NSCLC
# measurement_protocol: NCI tumour cell line growth inhibition, 48 h; in the data active = GI50 below about 0.43 µM; inactive = the rest
Outcomes: 1 = active, 0 = inactive

>  <compound>
COC(=O)c1oc2c(C(=O)/C=C/c3ccc(OC)cc3)c(OCCN(C)C)ccc2c1C

>  <cat>
0

$$$$
>  <compound>
CN1CCN(Cc2ccc(NC(=O)c3cncc(C#Cc4cnc(N)c5cccnc45)c3)cc2C(F)(F)F)CC1

>  <cat>
0

$$$$
>  <compound>
CSc1nc2c(c(=O)n1C)CN(C1CCCCC1)C(=O)C(c1ccccc1)N2 (stereo unspecified)

>  <cat>
0

$$$$
>  <compound>
CCCCCCCCCC[C@H](O)[C@H](O)CC[C@@H](O)[C@H]1CC[C@@H]([C@H]2CC[C@H](CCCCCCC[C@@H](O)CC3=C[C@H](C)OC3=O)O2)O1

>  <cat>
0

$$$$
>  <compound>
Cc1cc(Nc2nc(N[C@@H](C)c3ncc(F)cn3)ncc2Cl)n[nH]1

>  <cat>
0

$$$$
>  <compound>
CCN(Cc1cccc(Cl)c1)c1ccc(CO)c(Cl)c1

>  <cat>
0

$$$$
>  <compound>
CC(=O)[CH-]C(=O)c1ccccc1.CC(=O)[CH-]C(=O)c1ccccc1.O=S(=O)([O-])c1cc([O-])c2c([O-])cc(S(=O)(=O)[O-])cc2c1.[Na+].[Zr+4]

>  <cat>
0

$$$$
>  <compound>
CC[C@@H](C)/C=C(C)/C=C/C(=O)c1c(O)c(-c2ccc(O)cc2)cn(O)c1=O

>  <cat>
0

$$$$
>  <compound>
Clc1ccccc1-c1nnc2c(Cc3ccccc3)nc3ccccc3n12

>  <cat>
0

$$$$
>  <compound>
COc1ccc(/C=C2/SC(Nc3nc(-c4nc(NC5=NC(=O)/C(=C\c6ccc(OC)cc6)S5)sc4C)c(C)s3)=NC2=O)cc1

>  <cat>
1

$$$$
>  <compound>
CO[C@H]1CC(O[C@@H]2/C(C)=C/C[C@@H]3C[C@@H](C[C@]4(CC[C@H](C)[C@@H](C5CCCCC5)O4)O3)OC(=O)[C@@H]3C=C(C)/C(=N/O)[C@H]4OC/C(=C\C=C\[C@@H]2C)[C@]43O)O[C@@H](C)C1O (stereo partly specified)

>  <cat>
0

$$$$

---

# System: HOP-92 NSCLC
# measurement_protocol: NCI tumour cell line growth inhibition, 48 h; in the data active means GI50 below about 0.43 µM; inactive means the rest
Outcomes: 1.0 for active, 0.0 for inactive

>  <compound>
N#Cc1cnc(Nc2cc(NC[C@H]3CNCCO3)c(C(F)(F)F)cn2)cn1

>  <cat>
0.0

$$$$
>  <compound>
Clc1ccccc1-c1nnc2c(Cc3ccccc3)nc3ccccc3n12

>  <cat>
0.0

$$$$
>  <compound>
COc1cc2c(c(OC)c1OC)-c1ccc(SC)c(=O)cc1[C@@H](O)CC2

>  <cat>
0.0

$$$$
>  <compound>
Cc1cc(C)c(-c2c(N)cc(Br)cc2Br)c(N)c1

>  <cat>
0.0

$$$$
>  <compound>
C=CCC(N[C@H](CO)c1ccccc1)c1cn(Cc2ccccc2Cl)c(=O)n(Cc2ccccc2Cl)c1=O (stereo not given in full)

>  <cat>
0.0

$$$$
>  <compound>
CSc1nc2c(c(=O)n1C)CN(C1CCCCC1)C(=O)C(c1ccccc1)N2 (stereo not given)

>  <cat>
0.0

$$$$
>  <compound>
COc1cc(C2c3cc4c(cc3C(OC(=O)C[n+]3ccccc3)C3COC(=O)C23)OCO4)cc(OC)c1OC (stereo not given)

>  <cat>
1.0

$$$$
>  <compound>
CCCCCCCC/C=C/CCCCCCCC1=NC(C)(C)CN1CCO

>  <cat>
0.0

$$$$
>  <compound>
CC1NC(=O)C2=C1C(=O)NC(=O)C2 (stereo not given)

>  <cat>
0.0

$$$$
>  <compound>
CC(=O)[C@H]1CCC/C=C/[C@@H]2C[C@H](O)C[C@H]2[C@H](O)/C=C/C(=O)O1

>  <cat>
0.0

$$$$
